Biological target: LILRB2 antigen of the ELISA of Table 5 (format not specified) (UniProt Q8N423 22-460, limits assumed)
Sequence (Q8N423 22-460 limits assumed): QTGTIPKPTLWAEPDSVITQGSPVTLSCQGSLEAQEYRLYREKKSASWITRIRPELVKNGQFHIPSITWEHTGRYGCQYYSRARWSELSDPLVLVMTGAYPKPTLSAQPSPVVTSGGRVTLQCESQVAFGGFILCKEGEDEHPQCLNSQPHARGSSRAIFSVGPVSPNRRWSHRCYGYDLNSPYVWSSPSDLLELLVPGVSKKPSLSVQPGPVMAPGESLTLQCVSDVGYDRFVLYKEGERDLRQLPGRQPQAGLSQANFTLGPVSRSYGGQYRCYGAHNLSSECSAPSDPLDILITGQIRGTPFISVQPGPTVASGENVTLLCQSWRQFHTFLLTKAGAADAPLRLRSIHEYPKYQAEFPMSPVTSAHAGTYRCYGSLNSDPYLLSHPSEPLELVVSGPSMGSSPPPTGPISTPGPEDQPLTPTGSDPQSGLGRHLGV
Experiment: ELISA, antibody titration
Quantity: Kd (nM)
Give the value, in units of nM, as a plain number.

Recorded Kd for Antibody 7C12 (antibody, V domains shown, Mouse hybridoma mAb purified from ascites) VH: EVQLQQSGPDLVKPGASVKISCKASGYIFTDFNMHWVKQSHGKSLEWIGYIYPFNGGTGYNQKFENMATLTVDISSSTAYMEVRSLTSEDSAVYYCARRGGRGHFDYWGQGTTLTVSS VL: DIQMTQSPASLSASVGETVTVTCRASGNIHNYLAWYQQKQGKSPQLLVYNAKTLADGVPSRFSGSGSGIQFSLKINSLQPEDFGSYYCQHFWNTPFTFGSGTKLEIK , please?
0.631

Recorded Kd for Antibody 13C5 (antibody, V domains shown, Mouse hybridoma mAb purified from ascites) VH: QVQLKQSGPGLVQPSQSLSITCTVSGFSLTTFGVHWVRQSPGKGLEWLGVIWRGGSTDYNAAFMSRLSITKDNSKSQVFFKMNSLQADDTAIYYCAKNPYQYGSSHYYAMDYWGQGTSVTVSS VL: DIVMTQSPSSLSVSAGEKVTMSCKSSQSLLNSGNQKNYLAWYQQKPGQPPKLLIYGASTRESGVPDRFTGSGSGTVFTLTISSVQAEDLAVYYCQNDHILPFTFGSGTKLEIK , please?
0.314

Recorded Kd for Antibody 13H5 (antibody, V domains shown, Mouse hybridoma mAb purified from ascites) VH: EIQLQQSGPELVKPGTSVKVSCKASGSSFTDYNMYWVKQSHGKSLDWIGYIDPYNGRTTYNQKFRGKATLTVDKSSSTAFMHLNSLTSEDSAVYYCARGDYFDYWGQGTSLTVSS VL: EIQMTQTTSSLSASLGDRVTISCSASQGISNYLNWFQQKPDGTVKLLIYYTSTLHSGVPSRFSGSGSGTDFSLTISNLDPEDFATYYCQQYSNLPYTFGGGTKLEIK , please?
1.39
